Target Entity: T1, cynomolgus SIRP-α D1 domain (cyno1) (cynomolgus monkey, UniProt Q5TFQ8 30-148 (human entry), limits assumed)
T1 chain: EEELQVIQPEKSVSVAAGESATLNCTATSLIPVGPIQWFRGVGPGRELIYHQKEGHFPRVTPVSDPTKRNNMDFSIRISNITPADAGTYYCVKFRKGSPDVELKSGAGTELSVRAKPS
Procedure Text: SPR, Langmuir fit

[
  {
    "Binder": "S25 (scFv, V domains shown, also called clone 25; scFv-Fc form of AB25) VH: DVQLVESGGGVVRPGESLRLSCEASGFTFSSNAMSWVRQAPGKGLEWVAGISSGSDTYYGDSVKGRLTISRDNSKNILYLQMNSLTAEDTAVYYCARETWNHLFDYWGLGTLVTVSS VL: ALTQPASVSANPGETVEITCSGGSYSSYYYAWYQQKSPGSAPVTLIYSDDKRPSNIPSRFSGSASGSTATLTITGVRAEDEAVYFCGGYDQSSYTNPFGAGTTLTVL",
    "Quantity Unit": "s⁻¹",
    "koff": 0.000219
  },
  {
    "Binder": "S191 (scFv, V domains shown, also called clone 191) VH: DVQLVESGGGVVRPGESLRLSCAASGFSFSSYAMNWVRQAPGEGLEWVSRINSGGGGTDYAESVKGRFTISRDNSENTLYLQMNSLRAEDTAVYYCAKQYDWNGFFDYWGLGALVTVSS VL: ETVLTQSPATLSVSPGERATLSCRASQTVGSKLAWHQQKPGQAPRLLIYDATNRATGIPDRFSGSGSGTDFTLTISGLQTEDSAVYYCQQYYYWPPYRFGGGTKVEIK",
    "Quantity Unit": "s⁻¹",
    "koff": "5.54e-05"
  },
  {
    "Binder": "S71 (scFv, V domains shown, also called clone 71) VH: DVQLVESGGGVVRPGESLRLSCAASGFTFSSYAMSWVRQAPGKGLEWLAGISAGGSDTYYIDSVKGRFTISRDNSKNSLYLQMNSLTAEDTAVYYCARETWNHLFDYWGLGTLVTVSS VL: ALTQPASVSANPGETVKITCSGGGYYSTYYGWYQQKSPGSAPVTVIHSDDKRPSDIPSRFSGSASGSAATLTITGVRVEDEAVYYCAGYDARTYINTFGAGTTLTVL",
    "Quantity Unit": "s⁻¹",
    "koff": 0.000364
  }
]
